- EXPERIMENTAL_PROTOCOL: Cytotoxicity assay in MT-4 cells
- Format: cell-based, human
- MEASUREMENT_CONDITIONS: human, uninfected MT-4 cells, 5 days incubation; read-out: CC50

>  <COMPOUND>
O=C(NCc1c(F)cc(F)c(F)c1F)c1cn2c(c(O)c1=O)C(=O)N1CCCC[C@H]2C1 [Example 125]

>  <UNITS>
µM

>  <LIMIT_QUALIFIER>
=

>  <CC50 at 5 days>
10.2

$$$$
>  <COMPOUND>
C[C@H]1CCCN2CC1n1cc(C(=O)NCc3c(F)cc(F)cc3F)c(=O)c(O)c1C2=O (some centres unmarked) [Example 190]

>  <UNITS>
µM

>  <LIMIT_QUALIFIER>
=

>  <CC50 at 5 days>
22.8

$$$$
>  <COMPOUND>
O=C(NCc1c(F)cc(F)cc1F)c1cn2c(c(O)c1=O)C(=O)N1CC[C@@H](F)C[C@@H]2C1 [Example 73-2]

>  <UNITS>
µM

>  <LIMIT_QUALIFIER>
=

>  <CC50 at 5 days>
23.1

$$$$
>  <COMPOUND>
C[C@H]1CC[C@H](F)[C@H]2CN1C(=O)c1c(O)c(=O)c(C(=O)NCc3c(F)cc(F)cc3F)cn12 [Example 157]

>  <UNITS>
µM

>  <LIMIT_QUALIFIER>
=

>  <CC50 at 5 days>
23.7

$$$$
>  <COMPOUND>
O=C(NCc1c(F)cc(F)cc1F)c1cn2c(c(O)c1=O)C(=O)N1Cc3cc(F)c(F)cc3C[C@H]2C1 [Example 88]

>  <UNITS>
µM

>  <LIMIT_QUALIFIER>
>

>  <CC50 at 5 days>
23.4

$$$$
>  <COMPOUND>
O=C(NCc1c(F)cc(F)c(Cl)c1F)c1cn2c(c(O)c1=O)C(=O)N1CCCC[C@H]2C1 [Example 74]

>  <UNITS>
µM

>  <LIMIT_QUALIFIER>
=

>  <CC50 at 5 days>
7.28

$$$$
>  <COMPOUND>
CC1(F)CCCN2CC1n1cc(C(=O)NCc3ccc(F)cc3F)c(=O)c(O)c1C2=O (single isomer, unassigned) [Example 17-1a]

>  <UNITS>
µM

>  <LIMIT_QUALIFIER>
=

>  <CC50 at 5 days>
12.9

$$$$
>  <COMPOUND>
O=C(NCc1c(F)cc(F)cc1F)c1cn2c(c(O)c1=O)C(=O)N1C[C@@H]2CSc2ccccc21 [Example 94]

>  <UNITS>
µM

>  <LIMIT_QUALIFIER>
=

>  <CC50 at 5 days>
13.7

$$$$
>  <COMPOUND>
O=C(NCc1ccc(F)cc1F)c1cn2c(c(O)c1=O)C(=O)N1CCCOC[C@H]2C1 [Example 1-2]

>  <UNITS>
µM

>  <LIMIT_QUALIFIER>
=

>  <CC50 at 5 days>
20.7

$$$$
>  <COMPOUND>
Cc1noc2c1CN1C[C@H](C2)n2cc(C(=O)NCc3c(F)cc(F)cc3F)c(=O)c(O)c2C1=O (single isomer, unassigned) [Example 135-1]

>  <UNITS>
µM

>  <LIMIT_QUALIFIER>
>

>  <CC50 at 5 days>
50

$$$$
>  <COMPOUND>
C[C@H]1[C@H]2CCCCN1C(=O)c1c(O)c(=O)c(C(=O)NCc3ccc(F)cc3F)cn12 [Example 9]

>  <UNITS>
µM

>  <LIMIT_QUALIFIER>
=

>  <CC50 at 5 days>
6.61

$$$$
>  <COMPOUND>
C[C@]12CC=CCN(C1)C(=O)c1c(O)c(=O)c(C(=O)NCc3c(F)cc(F)cc3F)cn12 [Example 156]

>  <UNITS>
µM

>  <LIMIT_QUALIFIER>
=

>  <CC50 at 5 days>
13.7

$$$$
>  <COMPOUND>
O=C(NCc1ccc(F)cc1F)c1cn2c(c(O)c1=O)C(=O)N1CCCCC[C@H]2C1 [Example 5-2]

>  <UNITS>
µM

>  <LIMIT_QUALIFIER>
=

>  <CC50 at 5 days>
19.5

$$$$
>  <COMPOUND>
CN1CCN2CC(C1)n1cc(C(=O)NCc3ccc(F)cc3F)c(=O)c(O)c1C2=O (centres unmarked) [Example 33]

>  <UNITS>
µM

>  <LIMIT_QUALIFIER>
>

>  <CC50 at 5 days>
50

$$$$
>  <COMPOUND>
C[C@]1(F)CCCN2C[C@H]1n1cc(C(=O)NCc3ccc(F)cc3F)c(=O)c(O)c1C2=O [Example 60-1]

>  <UNITS>
µM

>  <LIMIT_QUALIFIER>
=

>  <CC50 at 5 days>
13.9

$$$$
>  <COMPOUND>
O=C(NCc1c(F)cc(F)cc1F)c1cn2c(c(O)c1=O)C(=O)N1CCCC[C@]2(CF)C1 [Example 163-2]

>  <UNITS>
µM

>  <LIMIT_QUALIFIER>
=

>  <CC50 at 5 days>
13.8

$$$$
>  <COMPOUND>
O=C(NCc1c(F)cc(F)cc1F)c1cn2c(c(O)c1=O)C(=O)N1C[C@@H]2CS(=O)(=O)c2ccccc21 [Example 96]

>  <UNITS>
µM

>  <LIMIT_QUALIFIER>
>

>  <CC50 at 5 days>
50

$$$$
>  <COMPOUND>
O=C(NCc1ccc(F)cc1F)c1cn2c(c(O)c1=O)C(=O)N1Cc3ccc(Cl)cc3C[C@@H]2C1 (single isomer, unassigned) [Example 128-2]

>  <UNITS>
µM

>  <LIMIT_QUALIFIER>
>

>  <CC50 at 5 days>
50

$$$$
>  <COMPOUND>
O=C(NCc1c(F)cc(F)cc1F)c1cn2c(c(O)c1=O)C(=O)N1CCCC2CC1 (single isomer, unassigned) [Example 24-1]

>  <UNITS>
µM

>  <LIMIT_QUALIFIER>
=

>  <CC50 at 5 days>
13.6

$$$$
>  <COMPOUND>
C[C@]1(F)CC[C@H]2CN(C1)C(=O)c1c(O)c(=O)c(C(=O)NCc3c(F)cc(F)cc3F)cn12 [Example 132-2]

>  <UNITS>
µM

>  <LIMIT_QUALIFIER>
=

>  <CC50 at 5 days>
25.7

$$$$
>  <COMPOUND>
O=C(NCc1ccc(F)cc1Cl)c1cn2c(c(O)c1=O)C(=O)N1CCCC[C@H]2C1 [Example 152]

>  <UNITS>
µM

>  <LIMIT_QUALIFIER>
=

>  <CC50 at 5 days>
12

$$$$
>  <COMPOUND>
C[C@]1(F)CCN2C[C@H](C1)n1cc(C(=O)NCc3c(F)cc(F)cc3F)c(=O)c(O)c1C2=O [Example 115-1]

>  <UNITS>
µM

>  <LIMIT_QUALIFIER>
=

>  <CC50 at 5 days>
12.2

$$$$
>  <COMPOUND>
C[C@]1(F)CCCN2C[C@@H]1n1cc(C(=O)NCc3ccc(F)cc3F)c(=O)c(O)c1C2=O (single isomer, unassigned) [Example 60-2]

>  <UNITS>
µM

>  <LIMIT_QUALIFIER>
=

>  <CC50 at 5 days>
14

$$$$
>  <COMPOUND>
COc1cccc(CNC(=O)c2cn3c(c(O)c2=O)C(=O)N2CCCC[C@H]3C2)c1F [Example 54]

>  <UNITS>
µM

>  <LIMIT_QUALIFIER>
=

>  <CC50 at 5 days>
1.46

$$$$
>  <COMPOUND>
O=C(NCc1c(F)cc(F)cc1F)c1cn2c(c(O)c1=O)C(=O)N1C[C@H]2CCc2c(Cl)cccc21 [Example 45-2]

>  <UNITS>
µM

>  <LIMIT_QUALIFIER>
=

>  <CC50 at 5 days>
8.89

$$$$
>  <COMPOUND>
O=C(NCc1ccc(F)cc1F)c1cn2c(c(O)c1=O)C(=O)N1C[C@@H]2CCc2cc(Cl)ccc21 [Example 49-1]

>  <UNITS>
µM

>  <LIMIT_QUALIFIER>
>

>  <CC50 at 5 days>
15.7

$$$$
>  <COMPOUND>
O=C(NCc1c(F)cc(F)cc1F)c1cn2c(c(O)c1=O)C(=O)N1C[C@H]2CCc2ccc(F)cc21 [Example 86-1]

>  <UNITS>
µM

>  <LIMIT_QUALIFIER>
>

>  <CC50 at 5 days>
30.3

$$$$
>  <COMPOUND>
O=C(NCc1ccc(F)c(Cl)c1F)c1cn2c(c(O)c1=O)C(=O)N1CCCC(F)(F)[C@H]2C1 (single isomer, unassigned) [Example 117-1]

>  <UNITS>
µM

>  <LIMIT_QUALIFIER>
=

>  <CC50 at 5 days>
13.3

$$$$
>  <COMPOUND>
C[C@H]1CC[C@H]2CN(C(=O)c3c(O)c(=O)c(C(=O)NCc4c(F)cc(F)cc4F)cn32)[C@H]1C [Example 108-2]

>  <UNITS>
µM

>  <LIMIT_QUALIFIER>
=

>  <CC50 at 5 days>
11.8

$$$$
